# Test system: 422866-222-R5-J1-PDC spheroids with HUVEC/MSC, viability;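 further: spheroids exposed to compounds for seven days before reading; percent viability relative to DMSO vehicle control taken as 100%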
# methodNotes: Anticancer human tumor 422866-222-R5-J1-PDC patient-derived pancreatic adenocarcinoma cell line growth inhibition [GQUAD]
# measurementContext: second compound 0.1 µM; first compound 0.316 µM; active compounds read low
quantityName: viability, T/C (%)
One number for each entry, in %.

# example entries with known answers
C=CCn1c(=O)c2cnc(Nc3ccc(N4CCN(C)CC4)cc3)nc2n1-c1cccc(C(C)(C)O)n1 + Cc1cnc(CNC(=O)c2c(=O)c3ccc(N4CCCN(C)CC4)nc3n3c2sc2ccccc23)cn1    54.1
CC[C@@]1(O)C(=O)OCc2c1cc1n(c2=O)Cc2cc3c(CN(C)C)c(O)ccc3nc2-1 + Cc1[nH]c2ccc(F)cc2c1-c1nc2c3cccnc3c3ncccc3c2[nH]1    36.8

Look at each compound and report its viability, T/C.
1. CC1COCCN1c1cc(C2(O)CC3CCC(C2)O3)c2cnn(-c3ccn[nH]3)c2n1 (stereo unspecified) + CN(C)c1ccc(Nc2c3ccc(NC(=O)CCN4CCCC4)cc3nc3cc(NC(=O)CCN4CCCC4)ccc23)cc1
2. CC1COCCN1c1cc(-c2ccnn2C)c2ccnc(-c3ccn[nH]3)c2n1 (stereo unspecified) + CN(C)c1ccc(Nc2c3ccc(NC(=O)CCN4CCCC4)cc3nc3cc(NC(=O)CCN4CCCC4)ccc23)cc1
3. COc1cc(C2c3cc4c(cc3C(OC3OC5COC(C)OC5C(O)C3O)C3COC(=O)C23)OCO4)cc(OC)c1O (stereo unspecified) + CN(C)c1ccc(Nc2c3ccc(NC(=O)CCN4CCCC4)cc3nc3cc(NC(=O)CCN4CCCC4)ccc23)cc1

Response given:
45.7
46.2
70.9
